experiment: Measurement of solubility; conditions: saline or isotonic
Measured Endpoint: solubility (µg/mL)
Give bare numbers, in µg/mL.

What value of solubility has been recorded for this entry: COc1cc2c3c(c4ccc(O)cc4c2cc1OC)C[C@@H]1CCCN1C3.Cl
4000

* * *

system: human colon cancer HT-29 cells; test: Inhibitory action on the proliferation of HT-29 cells; format: cell-based; conditions: Homo sapiens, HT-29; 96 hours culture, TetraColor ONE
Measured Endpoint: IC50
Please append the unit to your numeric answer.

Cl.Oc1ccc2c3c(c4ccc(F)cc4c2c1)CN1CCC[C@H]1[C@H]3O    0.218 µg/mL
Cl.Oc1ccc2c3c(c4ccccc4c2c1)CN1CCC[C@H]1[C@H]3O    0.14 µg/mL

Alright, here's another compound for you.
What value of IC50 has been recorded for this entry: COc1cc2c3c(c4ccc(O)cc4c2cc1OC)C[C@@H]1CCCN1C3.Cl
0.00062 µg/mL
